# maps each entry to its pIC50
- TESTED SYSTEM: human CTPS1 (Homo sapiens, UniProt P17812)
- MEASUREMENT NOTES: ADP-Glo assay, human CTPS1 enzyme inhibition
- Format: biochemical
- APPLIED CONDITIONS: wild-type human CTPS1, 25 nM enzyme; ADP-Glo; read-out: ADP-Glo_WT_hCTPS1—25 nM_IC50 (IC50)
pIC50: −log10 of the molar value.
MEASURED PARAMETER: pIC50

CCOc1ccn2ncc(-c3cnc(C(=O)NCc4cc(NS(=O)(=O)C5CC5)ccn4)s3)c2c1    < 7.00
CCOc1cncc(-c2cnc(C(=O)N[C@H](c3cc(NS(=O)(=O)C4CC4)ccn3)[C@@H]3CCN(C4CC4)C3)s2)n1    7.60 to 8.30
CCOc1cncc(-c2cnc(C(=O)N[C@H](c3cc(NS(=O)(=O)C4CC4)ccn3)C(C)(C)OC)s2)n1    7.30 to 7.60
CCOc1cncc(-c2cnc(C(=O)N[C@H](c3cc(NS(=O)(=O)C4CC4)ccn3)[C@@H]3CCCN3C)s2)n1    7.00 to 7.30
CCOc1cncc(-c2cnc(C(=O)N[C@H](c3cc(NS(=O)(=O)C4CC4)ncn3)[C@H]3CCOC3)s2)n1    7.60 to 8.30
CCOc1cncc(-c2cnc(C(=O)N[C@H](CN(C)C)c3cccc(NS(=O)(=O)C(F)F)c3)s2)n1    7.60 to 8.30
CCOc1cncc(-c2cnc(C(=O)N[C@H](c3cc(NS(=O)(=O)C4CC4)ccn3)[C@@H]3CCN(CCF)C3)s2)n1    7.60 to 8.30
CCOc1cncc(-c2cnc(C(=O)N[C@@H](CN3CC[C@@](C)(O)C3)c3cccc(NS(=O)(=O)C(F)F)c3)s2)n1    7.60 to 8.30
CCOc1cncc(-c2cnc(C(=O)N[C@@H](CN3CCOC[C@H]3C)c3cc(NS(=O)(=O)C4CC4)ccn3)s2)n1 (single isomer, unassigned)    7.30 to 7.60
CCOc1cncc(-c2cnc(C(=O)N[C@H](C)c3cc(NS(=O)(=O)C4CC4)ccn3)s2)n1    7.60 to 8.30
CCOc1cncc(-c2cnc(C(=O)N[C@H](c3cc(NS(=O)(=O)C4CC4)ccn3)C3CCOCC3)s2)n1    7.60 to 8.30
CCOc1cncc(-c2cnc(C(=O)N[C@H](CN3C[C@@H]4CC[C@H]3CO4)c3cc(NS(=O)(=O)C4CC4)ccn3)s2)n1    7.60 to 8.30
CCOc1cncc(-c2cnc(C(=O)N[C@]3(c4cccc(NS(=O)(=O)C(F)F)c4)C[C@H](O)C3)s2)n1    7.60 to 8.30
CCOc1cncc(-c2cnc(C(=O)N[C@@H](c3cc(NS(=O)(=O)C4CC4)ccn3)[C@H](C)O)s2)n1    ≥ 8.30

###

- TESTED SYSTEM: human CTPS1 (Homo sapiens, UniProt P17812)
- MEASUREMENT NOTES: ADP-Glo assay, human CTPS1 enzyme inhibition
- Assay type: biochemical
- APPLIED CONDITIONS: wild-type human CTPS1, 25 nM enzyme; ADP-Glo; read-out: ADP-Glo_WT_hCTPS1—25 nM_IC50 (IC50)
pIC50: −log10 of the molar value.
MEASURED PARAMETER: pIC50

CCOc1cncc(-c2cnc(C(=O)N[C@@H](CF)c3cc(NS(=O)(=O)C4CC4)ccn3)s2)n1 [I-160]    7.60 to 8.30
CCOc1cncc(-c2cnc(C(=O)N[C@H](CN3CCCC3)c3cc(NS(=O)(=O)C4CC4)ncn3)s2)n1 [I-251]    7.30 to 7.60
C[C@H](CN1CCCCC1)[C@H](NC(=O)c1ncc(-c2cnn3ccc(Cl)cc23)s1)c1cc(NS(=O)(=O)C2CC2)ccn1 [I-57]    7.60 to 8.30
CCOc1cncc(-c2cnc(C(=O)N[C@@H](c3cccc(NS(=O)(=O)C(F)F)c3)[C@H]3COCCO3)s2)n1 [I-201]    7.60 to 8.30
CCOc1cncc(-c2cnc(C(=O)N[C@@H](CN3CC[C@]4(CCOC4)C3)c3cc(NS(=O)(=O)C4CC4)ccn3)s2)n1 [I-127]    7.60 to 8.30
CCOc1cncc(-c2cnc(C(=O)N[C@H](c3cccc(NS(=O)(=O)C(F)F)c3)[C@@H](C)O)s2)n1 [I-286]    7.60 to 8.30
O=C(N[C@]1(c2cc(NS(=O)(=O)C3CC3)ccn2)C[C@H](O)C1)c1ncc(-c2cnn3ccc(Cl)cc23)s1 [I-89]    7.60 to 8.30

###

- TESTED SYSTEM: human CTPS1 (Homo sapiens)
- MEASUREMENT NOTES: ADP-Glo assay, human CTPS1 enzyme inhibition
- Assay type: biochemical
- APPLIED CONDITIONS: wild-type human CTPS1, 25 nM enzyme; ADP-Glo; read-out: ADP-Glo_WT_hCTPS1—25 nM_IC50 (IC50)
# maps each entry to its IC50
MEASURED PARAMETER: IC50

CCOc1cncc(-c2cnc(C(=O)N[C@H](c3cccc(NS(=O)(=O)C(F)F)c3)[C@H]3CCOC3)s2)n1 [I-187]    5 to 25 nM
CCOc1cncc(-c2cnc(C(=O)N[C@@H](c3cc(NS(=O)(=O)C4CC4)ccn3)[C@@H](C)COC)s2)n1 [I-235]    5 to 25 nM
CCOc1cncc(-c2cnc(C(=O)N[C@H](CCNC3CC3)c3cc(NS(=O)(=O)C4CC4)ccn3)s2)n1 [I-186]    5 to 25 nM
CCOc1cncc(-c2cnc(C(=O)N[C@@H](CN3C[C@H]4C[C@@H](C3)C4)c3cc(NS(=O)(=O)C4CC4)ccn3)s2)n1 [I-151]    50 to 100 nM

###

- TESTED SYSTEM: human CTPS1 (Homo sapiens)
- Sequence (P17812 1-591): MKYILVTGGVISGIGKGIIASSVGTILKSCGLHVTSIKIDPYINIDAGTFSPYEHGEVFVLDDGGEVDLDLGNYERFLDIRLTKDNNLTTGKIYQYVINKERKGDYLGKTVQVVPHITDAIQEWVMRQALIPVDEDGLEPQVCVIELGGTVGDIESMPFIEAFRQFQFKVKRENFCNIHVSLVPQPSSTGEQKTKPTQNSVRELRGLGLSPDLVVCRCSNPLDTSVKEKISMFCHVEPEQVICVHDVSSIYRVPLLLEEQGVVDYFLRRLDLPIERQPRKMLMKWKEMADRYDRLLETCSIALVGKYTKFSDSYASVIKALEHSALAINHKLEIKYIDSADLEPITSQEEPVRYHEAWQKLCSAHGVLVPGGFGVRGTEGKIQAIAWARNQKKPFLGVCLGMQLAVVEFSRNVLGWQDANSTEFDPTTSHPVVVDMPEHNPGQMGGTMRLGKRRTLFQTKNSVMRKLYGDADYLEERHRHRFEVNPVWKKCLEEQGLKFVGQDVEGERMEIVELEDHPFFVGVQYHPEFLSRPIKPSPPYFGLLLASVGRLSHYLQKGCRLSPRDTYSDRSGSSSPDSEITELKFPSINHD
- MEASUREMENT NOTES: ADP-Glo assay, human CTPS1 enzyme inhibition
- Format: biochemical
- APPLIED CONDITIONS: wild-type human CTPS1 25 nM; ATP 120 μM, UTP 160 μM, GTP 60 μM, L-glutamine 100 μM; 25 degrees C.; read-out: ADP-Glo_WT_hCTPS1—25 nM_IC50 (IC50)
- Experimental: The enzyme inhibitory activities of the compounds of the invention against the target of interest were determined using the ADP-Glo™ assay (Promega). […] Purified human CTPS1 protein was prepared in 1× assay buffer to the final working protein concentration required for the reaction. […] This mixture was incubated for an appropriate amount of time within the determined linear phase of the reaction at 25 degrees C. under sealed plate conditions with constant agitation at 500 revolutions per minute (rpm). […]
MEASURED PARAMETER: IC50

CCOc1cncc(-c2cnc(C(=O)N[C@H](c3nccc(NS(=O)(=O)C4CC4)c3F)[C@H]3CCOC3)s2)n1 (single isomer, unassigned) [II-17]    5 to 25 nM
CCOc1cncc(-c2cnc(C(=O)N[C@H](c3cccc(NS(=O)(=O)C(F)F)c3)[C@H](C)CN3CCCCC3)s2)n1 (single isomer, unassigned) [II-13]    > 100 nM
COC[C@H](NC(=O)c1ncc(-c2cnn3ccc(Cl)cc23)s1)c1nccc(NS(=O)(=O)C2CC2)n1 (single isomer, unassigned) [II-9]    5 to 25 nM
COC[C@@H](NC(=O)c1ncc(-c2cnn3ccc(Cl)cc23)s1)c1nccc(NS(=O)(=O)C2CC2)c1F (single isomer, unassigned) [II-2]    5 to 25 nM
CCOc1cncc(-c2cnc(C(=O)N[C@@H](c3cccc(NS(=O)(=O)C(F)F)c3)[C@@H](C)CN3CCCCC3)s2)n1 (single isomer, unassigned) [II-11]    25 to 50 nM
CCOc1cncc(-c2cnc(C(=O)N[C@@H](COC)c3cc(NS(=O)(=O)C4CC4)ncn3)s2)n1 (single isomer, unassigned) [II-7]    5 to 25 nM
